target: R132H IDH1 in HEK293T cells (Homo sapiens, UniProt O75874, R132H)
Sequence (O75874 whole entry R132H): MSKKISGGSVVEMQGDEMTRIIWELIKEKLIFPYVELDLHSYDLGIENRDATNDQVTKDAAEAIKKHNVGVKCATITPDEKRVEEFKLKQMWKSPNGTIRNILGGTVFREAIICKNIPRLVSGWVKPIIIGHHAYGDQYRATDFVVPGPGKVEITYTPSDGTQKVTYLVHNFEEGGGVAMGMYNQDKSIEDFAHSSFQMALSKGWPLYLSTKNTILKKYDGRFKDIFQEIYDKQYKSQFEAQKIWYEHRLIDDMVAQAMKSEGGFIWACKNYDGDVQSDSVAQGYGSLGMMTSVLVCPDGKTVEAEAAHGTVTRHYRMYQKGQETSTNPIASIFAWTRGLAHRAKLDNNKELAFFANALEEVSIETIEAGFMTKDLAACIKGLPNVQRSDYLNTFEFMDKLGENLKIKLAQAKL
pIC50: −log10 of the molar value.
observed-property: pIC50

# compound, observed-property, number
data = [
    ("Cc1ccccc1C(C(=O)NC1CCCCC1)N(C(=O)Cn1ccnc1C)c1cccc(F)c1 (stereo not shown)", "pIC50", 7.89),
]

* * *

target: R132Q IDH1 (Homo sapiens, UniProt O75874, R132Q); test: Biochemical IDH1 inhibition assay
Sequence (O75874 whole entry R132Q): as the sequence (O75874 whole entry R132H) above, with H132Q counted along it
Measured IC50 of individual entries

# compound, target-desc, IC50
rows = [
    ("COc1c(C)cc(NC(=O)c2nn(Cc3ccc(F)cc3)c3c2CN(C(=O)c2ccc[nH]2)C[C@]3(C)C(N)=O)cc1C", "R132Q IDH1 (Homo sapiens, UniProt O75874, R132Q)", "170 nM"),
    ("Cc1ccccc1C(C(=O)NC1CCCCC1)N(C(=O)Cn1ccnc1C)c1cccc(F)c1 (centres unmarked)", "R132Q IDH1 (Homo sapiens, UniProt O75874, R132Q)", "> 500000 nM"),
]

* * *

biological target: R132V IDH1 (Homo sapiens, UniProt O75874, R132V); test: Biochemical IDH1 inhibition assay
Sequence (O75874 whole entry R132V): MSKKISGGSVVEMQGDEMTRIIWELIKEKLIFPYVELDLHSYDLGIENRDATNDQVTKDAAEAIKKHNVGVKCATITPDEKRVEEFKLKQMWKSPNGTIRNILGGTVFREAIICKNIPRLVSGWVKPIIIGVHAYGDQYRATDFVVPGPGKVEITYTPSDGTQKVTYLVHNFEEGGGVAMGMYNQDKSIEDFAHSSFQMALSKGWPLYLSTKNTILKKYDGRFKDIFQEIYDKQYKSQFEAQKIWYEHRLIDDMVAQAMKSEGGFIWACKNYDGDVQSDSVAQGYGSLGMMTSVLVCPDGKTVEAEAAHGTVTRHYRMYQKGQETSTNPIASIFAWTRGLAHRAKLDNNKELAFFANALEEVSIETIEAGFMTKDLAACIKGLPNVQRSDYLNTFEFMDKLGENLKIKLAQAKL
observed-property: IC50

# compound, result
data = [
    ("Cc1ccccc1C(C(=O)NC1CCCCC1)N(C(=O)Cn1ccnc1C)c1cccc(F)c1 (stereo not shown)", "20 nM"),
]

* * *

target: R132C IDH1 (Homo sapiens, UniProt O75874, R132C); assay: Biochemical IDH1 inhibition assay
Sequence (O75874 whole entry R132C): as the sequence (O75874 whole entry R132H) above, with H132C counted along it

# molecule, target-desc, unit-spec, IC50
data = [
    ("Cc1ccccc1C(C(=O)NC1CCCCC1)N(C(=O)Cn1ccnc1C)c1cccc(F)c1 (stereo not shown)", "R132C IDH1 (Homo sapiens, UniProt O75874, R132C)", "nM", 200),
]

* * *

biological target: R132S IDH1 (Homo sapiens, UniProt O75874, R132S); test: Biochemical IDH1 inhibition assay
Sequence (O75874 whole entry R132S): as the sequence (O75874 whole entry R132V) above, with V132S counted along it

# compound, unit-spec, IC50
rows = [
    ("Cc1ccccc1C(C(=O)NC1CCCCC1)N(C(=O)Cn1ccnc1C)c1cccc(F)c1 (stereo not shown)", "nM", 300),
]

* * *

target: R132H IDH1 (Homo sapiens, UniProt O75874, R132H); assay: Biochemical IDH1 inhibition assay
pIC50: −log10 of the molar value.
The entries below come with measured pIC50 values attached.

# compound, pIC50
rows = [
    ("COc1c(C)cc(NC(=O)c2nn(Cc3ccc(F)cc3)c3c2CN(C(=O)c2ccc[nH]2)C[C@]3(C)C(N)=O)cc1C", 8.30),
    ("Cc1ccccc1C(C(=O)NC1CCCCC1)N(C(=O)Cn1ccnc1C)c1cccc(F)c1 (centres unmarked)", 7.40),
]

* * *

biological target: R132L IDH1 (Homo sapiens, UniProt O75874, R132L); test: Biochemical IDH1 inhibition assay
pIC50: −log10 of the molar value.
observed-property: pIC50

# compound, target-desc, number
measured = [
    ("Cc1ccccc1C(C(=O)NC1CCCCC1)N(C(=O)Cn1ccnc1C)c1cccc(F)c1 (stereo not shown)", "R132L IDH1 (Homo sapiens, UniProt O75874, R132L)", 8.05),
]
